# Tested on: AGO1522 cells
# Test Description: MTT cell viability assay, AGO1522 normal fibroblasts
# Format: cell-based
# Reported Conditions: Homo sapiens, Fibroblast, 24 h treatment, mean ± SD of triplicate, read-out: IC50, AGO1522, 24 hours
Measurement Label: pIC50
// field semantics: pIC50 = negative decimal log of concentration (mol/L)

# example entries with known answers
COc1ccc(C2=NN(c3ccc(C)cc3)C(c3cc(OC)c(OC)c(OC)c3)C2)cc1 (centres unmarked); 4.54
COc1ccc(-c2cc(-c3cc(OC)c(OC)c(OC)c3)n(-c3ccc(Cl)cc3)n2)cc1; 4.60
COc1ccc(-c2cc(-c3cc(OC)c(OC)c(OC)c3)n(-c3ccc(C)cc3)n2)cc1; 4.46

Which pIC50 reading was recorded for the molecule `COc1cc(-c2cc(-c3ccccc3)nn2-c2ccccc2)cc(OC)c1OC` ? 4.51

Which pIC50 reading was recorded for the molecule COc1cc(C2CC(c3ccccc3)=NN2c2ccc(F)cc2)cc(OC)c1OC (centres unmarked) ? 4.38

###

# Tested on: AGO1522 cells
# Test Description: MTT cell viability assay, AGO1522 normal fibroblasts
# Type: cell-based
# Reported Conditions: Homo sapiens, Fibroblast, 24 h treatment, mean ± SD of triplicate, read-out: IC50, AGO1522, 24 hours
IC50 strictly under 30 µM means Met; at 30 µM or over means Not met.

Record excerpt, results attached:
COc1cc(C2CC(c3ccccc3)=NN2c2ccc(Cl)cc2)cc(OC)c1OC (stereo not shown) [3c]; Met
COc1ccc(C2=NN(c3ccc(Cl)cc3)C(c3cc(OC)c(OC)c(OC)c3)C2)cc1 (stereo not shown) [3g]; Not met
COc1ccc(-c2cc(-c3cc(OC)c(OC)c(OC)c3)n(-c3ccc(F)cc3)n2)cc1 [4d]; Not met
CC(=O)O[C@H]1C(=O)[C@@]2(C)[C@H]([C@H](OC(=O)c3ccccc3)[C@]3(O)C[C@H](OC(=O)[C@H](O)[C@@H](NC(=O)c4ccccc4)c4ccccc4)C(C)=C1C3(C)C)[C@]1(OC(C)=O)CO[C@@H]1C[C@@H]2O [Paclitaxel, reference compound]; Not met
COc1ccc(C2=NN(c3ccccc3)C(c3cc(OC)c(OC)c(OC)c3)C2)cc1 (stereo not shown) [3e]; Not met

Next compound, please.
Threshold test, IC50 < 30 µM: COc1cc(C2CC(c3ccccc3)=NN2c2ccccc2)cc(OC)c1OC (stereo not shown) [3a] Met

###

# System: MDA-MB-468 cells
# Test Description: MTT cell viability assay, MDA-MB-468
# Format: cell-based, human
# Reported Conditions: Homo sapiens, MDA-MB-468, 48 h, 48 h treatment, mean ± SD of triplicate, read-out: IC50, MDA-MB-468, 48 hours
We begin with a simple list: items and their reported IC50.

# example entries with known answers
COc1ccc(C2=NN(c3ccccc3)C(c3cc(OC)c(OC)c(OC)c3)C2)cc1 (stereo not drawn); 10.8 µM
COc1cc(C2CC(c3ccccc3)=NN2c2ccc(Cl)cc2)cc(OC)c1OC (stereo not drawn); 19.9 µM
COc1ccc(C2=NN(c3ccc(Cl)cc3)C(c3cc(OC)c(OC)c(OC)c3)C2)cc1 (stereo not drawn); 8.5 µM
COc1ccc(-c2cc(-c3cc(OC)c(OC)c(OC)c3)n(-c3ccc(F)cc3)n2)cc1; 24.5 µM
COc1cc(C2CC(c3ccccc3)=NN2c2ccccc2)cc(OC)c1OC (stereo not drawn); 6.41 µM
CC(=O)O[C@H]1C(=O)[C@@]2(C)[C@H]([C@H](OC(=O)c3ccccc3)[C@]3(O)C[C@H](OC(=O)[C@H](O)[C@@H](NC(=O)c4ccccc4)c4ccccc4)C(C)=C1C3(C)C)[C@]1(OC(C)=O)CO[C@@H]1C[C@@H]2O [Paclitaxel, reference compound]; 25.2 µM
COc1ccc(-c2cc(-c3cc(OC)c(OC)c(OC)c3)n(-c3ccc(Cl)cc3)n2)cc1; 12.4 µM
COc1ccc(-c2cc(-c3cc(OC)c(OC)c(OC)c3)n(-c3ccc(C)cc3)n2)cc1; 12 µM

Which IC50 reading was recorded for the compound `COc1cc(-c2cc(-c3ccccc3)nn2-c2ccccc2)cc(OC)c1OC` ? 11 µM

Which IC50 reading was recorded for the compound COc1cc(C2CC(c3ccccc3)=NN2c2ccc(F)cc2)cc(OC)c1OC (stereo not drawn) ? 15.2 µM

Which IC50 reading was recorded for the compound COc1cc(C2CC(c3ccccc3)=NN2c2ccc(C)cc2)cc(OC)c1OC (stereo not drawn) ? 9.29 µM

Which IC50 reading was recorded for the compound COc1ccc(C2=NN(c3ccc(C)cc3)C(c3cc(OC)c(OC)c(OC)c3)C2)cc1 (stereo not drawn) ? 6.4 µM
